Record form. Attribute: composite z-score. Fill in for each entry.
# systemUnderTest: Follistatin (Homo sapiens)
# assayRemarks: follistatin binders on small-molecule microarrays, primary screen, biochemical, small-molecule microarray, 635/667 nm fluorescence (AID 1132)
# conditions: FST binding, 635 nm fluorescence, higher = more signal
Answers are plain numbers.

Some solved cases for reference:
Ask | What does the data say about its composite z-score? Entry: `O=C1C=C(c2ccccc2)C(=O)c2ccc([C@H]3Oc4ccccc4S(=O)(=O)N4CCC[C@@H]34)cc21`
Reply | 0.428

Ask | What does the data say about its composite z-score? Entry: `COC(=O)[C@@]1(Cc2ccc(F)cc2)[C@H]2c3cc(C(=O)N4CCCC4)n(CCc4ccc(O)c(O)c4)c3C[C@H]2CN1C(=O)c1ccccc1`
Reply | -0.411

Ask | What does the data say about its composite z-score? Entry: `COC(=O)[C@@]1(Cc2ccccc2N=[N+]=[N-])N=C(c2ccc(OCCCO)cc2)O[C@H]1c1ccccc1N=[N+]=[N-]`
Reply | 1.27

Ask | What does the data say about its composite z-score? Entry: `COCCOC(=O)N1C(=O)[C@@]2(c3cc(C#CCNC(N)=O)ccc31)[C@H](C(=O)N1CCc3cc(OC)c(OC)cc3C1)[C@H]1C(=O)O[C@H](c3ccccc3)[C@H](c3ccccc3)N1[C@@H]2c1ccccc1OCCO`
Reply | 1.2

Ask | What does the data say about its composite z-score? Entry: CC(C)(C)OC(=O)CC[C@]1(C(=O)NCC(O)CO)N=C(c2ccc(OCCCO)cc2)O[C@H]1c1ccccc1 (some centres undefined)
Reply | -0.786

Ask | What does the data say about its composite z-score? Entry: `[N-]=[N+]=NCc1ccccc1C[C@@]1(C(=O)N2CCCCC2)N=C(c2ccc(OCCCO)cc2)O[C@@H]1c1ccccc1`
Reply | 0.24

Please go through the list and note composite z-score for each molecule.
1. COc1ccc(CCNC(=O)[C@@H]2c3ccccc3C(=O)N(Cc3cc(C(F)(F)F)cc(C(F)(F)F)c3)[C@H]2c2ccc(CO)cc2)cc1
2. O=C1C[C@@](C(=O)NCCN2CCOCC2)(c2ccc([N+](=O)[O-])cc2)[C@@H](c2ccc(CO)cc2I)N1C1CCCCC1
3. [N-]=[N+]=NCc1ccccc1C[C@@]1(C(=O)NCc2ccccc2)N=C(c2ccc(OCCCO)cc2)O[C@@H]1c1ccccc1N=[N+]=[N-]
4. CCOC(=O)C1=CC[C@@H](c2ccccc2C(F)(F)F)N(S(=O)(=O)c2ccc(C)cc2)[C@H]1c1ccc(C#N)cc1
5. Cc1ccc(S[C@]2(C(=O)NCC(F)(F)F)CC(=O)N(Cc3ccccc3)[C@@H]2c2ccc(CO)cc2I)cc1
6. COc1ccc(NC(=O)O[C@H]2[C@H](OC(=O)Nc3ccccc3)[C@H](OC(=O)Nc3ccccc3)[C@@H](OC)O[C@@H]2CO)cc1
7. C=CCC(OC(C)=O)[C@@H]1[C@@H](N(Cc2cc3ccccc3o2)C(=O)Cc2ccc(F)cc2)c2cc(OCCCO)ccc2N1C(=O)c1ccc2ccccc2c1 (some centres undefined)
8. CCCCCCc1nc(-c2cc(C)c(OC)c(C)c2)c(C)c2c1[Si](C(C)C)(C(C)C)OC2

Reply |
[0.255, 1.15, 0.557, 0.507, -0.0488, 1.35, 0.722, 0.204]

====

# assayRemarks: small-molecule binders of probe aLefty1, primary screen, biochemical, small-molecule microarray, 635/667 nm fluorescence (AID 1153);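 also: score merges spot fluorescence with signal-to-noise ratio from the scanned slide images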
# conditions: higher = more signal
readoutKind: composite z-score
Give bare numbers.

Some solved cases for reference:
Ask | What does the data say about its composite z-score? Entry: `CCCC[C@@H]1C[C@H]1[C@@H](NC(=O)c1cccs1)c1ccc(C(F)(F)F)cc1`
Reply | 0.101

Ask | What does the data say about its composite z-score? Entry: `CCCCC(=C=CC[C@@H](O)c1ccccc1OCCO)C[C@@H](O)COCc1ccccc1`
Reply | 0.117

Please go through the list and note composite z-score for each molecule.
1. CC(C)[Si](C#C[Si](C(C)C)(C(C)C)C(C)C)(O[C@H](C)c1cn([C@H](CO)Cc2ccccc2)nn1)C(C)C
2. O=C(NCCCCCNC(=O)/C(Cc1ccccc1)=N/O)OCc1ccccc1
3. CCOC(=O)C[C@H]1[C@H](OC(=O)Cc2ccc3c(c2)OCO3)[C@@H](NC(=O)Cc2ccc(OC)cc2)c2cc(OCCCO)ccc2N1C(=O)c1ccc2ccccc2n1

Reply |
1. -0.212
2. -0.696
3. 0.0889
